inhibition values for the compounds below.
System: Epidermal growth factor receptor (Homo sapiens), P00533 [L858R]
Sequence (P00533 whole entry L858R): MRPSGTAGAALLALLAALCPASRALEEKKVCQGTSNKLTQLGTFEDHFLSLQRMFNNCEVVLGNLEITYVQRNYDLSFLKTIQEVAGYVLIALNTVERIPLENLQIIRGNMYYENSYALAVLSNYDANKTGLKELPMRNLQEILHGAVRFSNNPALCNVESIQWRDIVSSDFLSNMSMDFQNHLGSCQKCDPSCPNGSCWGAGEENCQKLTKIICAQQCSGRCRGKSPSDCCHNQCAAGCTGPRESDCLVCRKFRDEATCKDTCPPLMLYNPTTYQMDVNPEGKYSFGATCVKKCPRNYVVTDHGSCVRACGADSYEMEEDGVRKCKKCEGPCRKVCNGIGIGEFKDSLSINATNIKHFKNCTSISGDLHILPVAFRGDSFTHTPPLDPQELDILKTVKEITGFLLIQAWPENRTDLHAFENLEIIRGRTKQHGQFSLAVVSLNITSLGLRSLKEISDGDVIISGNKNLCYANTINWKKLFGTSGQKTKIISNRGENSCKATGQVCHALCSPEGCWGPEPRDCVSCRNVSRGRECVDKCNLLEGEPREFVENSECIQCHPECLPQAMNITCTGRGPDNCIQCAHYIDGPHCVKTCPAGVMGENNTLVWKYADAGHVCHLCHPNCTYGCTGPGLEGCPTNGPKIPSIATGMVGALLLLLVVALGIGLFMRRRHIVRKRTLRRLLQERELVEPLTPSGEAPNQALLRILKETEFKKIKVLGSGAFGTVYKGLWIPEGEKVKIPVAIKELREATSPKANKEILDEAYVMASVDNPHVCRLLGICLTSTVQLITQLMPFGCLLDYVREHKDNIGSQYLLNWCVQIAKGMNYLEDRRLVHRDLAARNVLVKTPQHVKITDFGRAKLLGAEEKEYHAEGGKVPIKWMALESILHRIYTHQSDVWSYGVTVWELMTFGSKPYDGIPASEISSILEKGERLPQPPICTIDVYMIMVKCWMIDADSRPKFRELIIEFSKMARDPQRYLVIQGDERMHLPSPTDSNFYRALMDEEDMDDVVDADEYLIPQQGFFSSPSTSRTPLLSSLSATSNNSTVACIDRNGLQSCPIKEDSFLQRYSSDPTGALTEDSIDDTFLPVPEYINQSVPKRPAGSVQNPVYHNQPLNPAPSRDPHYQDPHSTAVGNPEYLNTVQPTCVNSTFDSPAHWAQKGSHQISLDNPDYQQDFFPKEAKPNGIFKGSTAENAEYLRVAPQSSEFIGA
test settings: at 1 µM

structure as smiles	unit text	inhibition
CCS(=O)(=O)c1ccc(OC)c(Nc2nccc(N(C)c3ccc4c(C)n[nH]c4c3)n2)c1	%	43.1
N#Cc1c(NC(=O)c2ccccc2F)sc2c1CCCC2	%	3.66
O=S(=O)(CCOCc1ccc(-c2ccc3ncnc(Nc4ccc(OCc5cccc(F)c5)c(Cl)c4)c3c2)o1)c1ccccc1	%	77.3
CCS(=O)(=O)c1ccc(OC)c(Nc2ncc(-c3cccc(OC)c3)o2)c1	%	27.6
COc1cc2ncn(-c3cc(OCc4ccccc4S(C)(=O)=O)c(C#N)s3)c2cc1OC	%	45.8
NS(=O)(=O)c1ccc(NC=C2C(=O)Nc3ccc4ncsc4c32)cc1	%	5.45
Cc1ccc(Nc2ccnc(Nc3cccc(C(N)=O)c3)n2)cc1O	%	32
CN(c1ccc(NC(=O)Nc2ccc(OC(F)(F)F)cc2)cc1)c1ccnc(Nc2cccc(S(N)(=O)=O)c2)n1	%	3.36
COc1ccc2ncnc(Nc3ccc(OCc4ccccc4)cc3)c2c1	%	46.3
CC(C)c1ccc(Nc2nccc(-c3cnn4ncccc34)n2)cc1	%	7.83
Cc1ccc2c(-c3ccnc(Nc4cccc(C(F)(F)F)c4)n3)c(-c3ccccc3)nn2n1	%	94.8
Cc1ccc2c(-c3ccnc(Nc4ccc5c(c4)OCCO5)n3)c(-c3ccc(C(F)(F)F)cc3)nn2n1	%	5.71
C[C@@H](Oc1cc(-n2cnc3ccc(OC[C@@H](O)CO)cc32)sc1C(N)=O)c1ccccc1Cl	%	1.14
Cc1ccc2c(c1)/C(=N/Nc1ccc(S(N)(=O)=O)cc1)C(=O)N2	%	-1.97

* * *

system name: Tyrosine-protein kinase JAK1 (Homo sapiens) (UniProt P23458)
Sequence (P23458 whole entry): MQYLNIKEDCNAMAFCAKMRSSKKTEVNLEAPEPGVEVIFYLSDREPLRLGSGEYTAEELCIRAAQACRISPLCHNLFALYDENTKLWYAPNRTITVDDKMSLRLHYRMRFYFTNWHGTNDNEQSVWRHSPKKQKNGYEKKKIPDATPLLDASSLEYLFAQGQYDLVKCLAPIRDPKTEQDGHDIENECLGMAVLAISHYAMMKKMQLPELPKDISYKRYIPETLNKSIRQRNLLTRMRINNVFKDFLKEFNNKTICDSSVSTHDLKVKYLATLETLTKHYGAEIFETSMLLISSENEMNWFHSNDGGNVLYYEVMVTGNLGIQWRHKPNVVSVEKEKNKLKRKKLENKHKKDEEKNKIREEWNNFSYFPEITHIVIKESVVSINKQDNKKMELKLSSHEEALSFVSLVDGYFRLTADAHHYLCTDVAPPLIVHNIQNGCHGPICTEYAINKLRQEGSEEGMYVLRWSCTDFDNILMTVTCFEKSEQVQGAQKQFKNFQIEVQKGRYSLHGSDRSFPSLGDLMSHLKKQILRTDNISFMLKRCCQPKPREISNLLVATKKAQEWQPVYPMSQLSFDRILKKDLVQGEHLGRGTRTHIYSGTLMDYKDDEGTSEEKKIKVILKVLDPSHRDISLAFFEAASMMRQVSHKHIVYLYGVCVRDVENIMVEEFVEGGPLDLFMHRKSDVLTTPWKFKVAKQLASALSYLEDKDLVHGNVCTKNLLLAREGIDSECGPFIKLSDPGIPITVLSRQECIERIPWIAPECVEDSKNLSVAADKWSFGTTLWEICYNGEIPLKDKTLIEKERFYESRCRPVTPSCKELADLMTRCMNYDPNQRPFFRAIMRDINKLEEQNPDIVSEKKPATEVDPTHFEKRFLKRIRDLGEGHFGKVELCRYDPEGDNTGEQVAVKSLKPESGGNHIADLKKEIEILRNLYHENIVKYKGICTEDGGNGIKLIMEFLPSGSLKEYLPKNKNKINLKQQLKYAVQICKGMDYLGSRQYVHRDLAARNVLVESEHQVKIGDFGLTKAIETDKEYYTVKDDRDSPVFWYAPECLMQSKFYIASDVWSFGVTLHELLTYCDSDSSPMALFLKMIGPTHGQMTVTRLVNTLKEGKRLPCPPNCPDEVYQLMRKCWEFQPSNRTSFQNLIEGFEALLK
test settings: at 0.1 µM
Description: GSK_PKIS: JAK1 mean inhibition at 0.1 uM [Nanosyn]

structure as smiles	system name	inhibition / %
C[C@@H](Oc1cc(-n2cnc3ccc(OC[C@@H](O)CO)cc32)sc1C(N)=O)c1ccccc1Cl	Tyrosine-protein kinase JAK1 (Homo sapiens) (UniProt P23458)	-2.88
Cc1ccc(NC(=O)CC2CC2)cc1-c1ccc(C(=O)NCC2CC2)cc1	Tyrosine-protein kinase JAK1 (Homo sapiens) (UniProt P23458)	1.27
CN(c1ccc(NC(=O)Nc2ccc(OC(F)(F)F)cc2)cc1)c1ccnc(Nc2cccc(S(N)(=O)=O)c2)n1	Tyrosine-protein kinase JAK1 (Homo sapiens) (UniProt P23458)	2.28
Cc1nc(-c2ccccc2)n2nc(NCCCN3CCOCC3)ncc12	Tyrosine-protein kinase JAK1 (Homo sapiens) (UniProt P23458)	3.7
Cc1ccc2c(-c3ccnc(Nc4ccc5c(c4)OCCO5)n3)c(-c3ccc(C(F)(F)F)cc3)nn2n1	Tyrosine-protein kinase JAK1 (Homo sapiens) (UniProt P23458)	1.09
OCc1ccc(-c2nc(-c3ccccn3)c(-c3ccc4c(c3)OCO4)[nH]2)cc1	Tyrosine-protein kinase JAK1 (Homo sapiens) (UniProt P23458)	3.55
COc1cc2ncn(-c3cc(OCc4ccccc4S(C)(=O)=O)c(C#N)s3)c2cc1OC	Tyrosine-protein kinase JAK1 (Homo sapiens) (UniProt P23458)	3.78
N#Cc1cccc(Nc2nccc(-c3cnn4ncccc34)n2)c1	Tyrosine-protein kinase JAK1 (Homo sapiens) (UniProt P23458)	2.54
CN1CCN(C(=O)c2ccc(NC(=O)Nc3ccc(N(C)c4ccnc(Nc5ccc(CS(C)(=O)=O)cc5)n4)cc3)cc2)CC1	Tyrosine-protein kinase JAK1 (Homo sapiens) (UniProt P23458)	2.49
NS(=O)(=O)c1ccc(Nc2cc(-c3cccc(O)c3)n[nH]2)cc1	Tyrosine-protein kinase JAK1 (Homo sapiens) (UniProt P23458)	4.66
Cc1cc(O)cc(C)c1/C=C/c1cncc(C(=O)N(C)C)c1	Tyrosine-protein kinase JAK1 (Homo sapiens) (UniProt P23458)	4.52
FC(F)(F)c1ccc(-c2nn3ncccc3c2-c2ccnc(Nc3ccc4c(c3)OCCO4)n2)cc1	Tyrosine-protein kinase JAK1 (Homo sapiens) (UniProt P23458)	7.49
Nc1nccc(-c2c(-c3ccc(F)cc3)ncn2CCCN2CCOCC2)n1	Tyrosine-protein kinase JAK1 (Homo sapiens) (UniProt P23458)	2.73
CCOc1nccc2c1nc(-c1nonc1N)n2CC	Tyrosine-protein kinase JAK1 (Homo sapiens) (UniProt P23458)	6.31
Cc1ccc2c(c1)/C(=N/Nc1ccc(S(N)(=O)=O)cc1)C(=O)N2	Tyrosine-protein kinase JAK1 (Homo sapiens) (UniProt P23458)	-1.86
c1ccc(Cc2nc3ccc(Nc4ncnc5ccccc45)cc3[nH]2)cc1	Tyrosine-protein kinase JAK1 (Homo sapiens) (UniProt P23458)	1.47
[O-][S+]1CCN(Cc2ccc(-c3ccc4ncnc(Nc5ccc(OCc6ccccc6)c(Cl)c5)c4c3)o2)CC1	Tyrosine-protein kinase JAK1 (Homo sapiens) (UniProt P23458)	1.27
NS(=O)(=O)c1ccc(N/N=C2\C(=O)Nc3ccc(Cl)cc32)cc1	Tyrosine-protein kinase JAK1 (Homo sapiens) (UniProt P23458)	4.77
Cc1cc(-c2ccccn2)cc(C)c1/C=C/c1cncc(-c2nn[nH]n2)c1	Tyrosine-protein kinase JAK1 (Homo sapiens) (UniProt P23458)	4.47
COc1cccc(-n2ncc3c(N/N=C/c4ccc(S(C)(=O)=O)cc4)ncnc32)c1	Tyrosine-protein kinase JAK1 (Homo sapiens) (UniProt P23458)	1.39

* * *

Tested on: Tyrosine-protein kinase ABL1 (Homo sapiens), P00519 [Y253F]
test settings: at 1 µM
inhibition: recorded values

structure as smiles	inhibition (%)
NS(=O)(=O)c1ccc(N/N=C2\C(=O)Nc3ccc(Cl)cc32)cc1	11.1
COc1ccc(-c2nn3ncccc3c2-c2ccnc(Nc3cccc(C(F)(F)F)c3)n2)cc1	5.56
C[C@@H](Oc1cc(-n2cnc3ccc(OC[C@@H](O)CO)cc32)sc1C(N)=O)c1ccccc1Cl	10.3
CCOc1nccc2c1nc(-c1nonc1N)n2CC	6.81
COC(=O)c1ccc2c(c1)C(=Cc1cc(Br)c(O)c(Br)c1)C(=O)N2	15.9
NC(=O)c1sc(-n2cnc3ccccc32)cc1OCc1ccccc1Br	5.62
COc1cc(/C=N/Nc2ncnc3c2cnn3C(C)C)ccc1O	82.2
COc1cccc(-n2ncc3c(N/N=C/c4ccc(S(C)(=O)=O)cc4)ncnc32)c1	94.7
Cc1ccc(Nc2ccnc(Nc3cccc(C(N)=O)c3)n2)cc1O	94.1
COc1cc2ncnc(Nc3ccc4c(cnn4Cc4ccccc4)c3)c2cc1OC	4.15
COc1cccc(-n2nc(C)c3c(N/N=C(\C)c4ccncc4)ncnc32)c1	4.85
NS(=O)(=O)c1ccc(-c2cc3ccncc3cc2OCc2ccccc2)cc1	3.98
Cc1ccc(C(=O)NC2CC2)cc1-c1ccc2[nH]ncc2c1	0.48
CN(C)CCCn1c(-c2nonc2N)nc2cnccc21	4.68
OCc1ccc(-c2nc(-c3ccccn3)c(-c3ccc4c(c3)OCO4)[nH]2)cc1	4.83
Cc1ccc2c(-c3ccnc(Nc4cccc(C(F)(F)F)c4)n3)c(-c3ccccc3)nn2n1	53.3
Nc1ccc(C#Cc2cncnc2Nc2ccc(OCc3cccc(F)c3)c(Cl)c2)cc1	2.12
Cc1ccc(NC(=O)CC2CC2)cc1-c1ccc(C(=O)NCC2CC2)cc1	5.33
N#Cc1c(NC(=O)c2ccccc2F)sc2c1CCCC2	0.05
Nc1nccc(C#Cc2cncnc2Nc2ccc(OCc3cccc(F)c3)c(Cl)c2)n1	2.69
Cc1cc(O)cc(C)c1/C=C/c1cncc(C(=O)N(C)C)c1	14.2
Cc1ccc2c(-c3ccnc(Nc4ccc5c(c4)OCCO5)n3)c(-c3ccc(C(F)(F)F)cc3)nn2n1	4.3
CN(C)C(=O)O[C@H]1CN[C@H](C#Cc2cc3ncnc(Nc4ccc(OCc5cccc(F)c5)c(Cl)c4)c3s2)C1	4.19
N#Cc1cccc(Nc2nccc(-c3cnn4ncccc34)n2)c1	49.8
COC(=O)c1cncc(/C=C/c2c(C)cc(O)cc2C)c1	60.9
O=C1Nc2ccccc2/C1=C/Nc1ccc2[nH]c(=O)[nH]c2c1	23.3

* * *

system name: Receptor tyrosine-protein kinase erbB-2 (Homo sapiens)
test settings: at 1 µM
Description: GSK_PKIS: ERBB2 mean inhibition at 1 uM [Nanosyn]
Entries annotated with measured inhibition

compound	unit text	inhibition
Nc1nccc(-c2c(-c3ccc(F)cc3)ncn2CCCN2CCOCC2)n1	%	6.08
COc1ccc2ncnc(Nc3ccc(OCc4ccccc4)cc3)c2c1	%	30.9
NC(=O)c1cccc(Nc2nccc(Nc3cccc(F)c3)n2)c1	%	3.14
ON=C1CCc2cc(-c3nc(C4CCNCC4)[nH]c3-c3ccncc3)ccc21	%	-5.12
CCCN1CCCC(c2ccc(Nc3nc(Nc4cc(F)ccc4C(N)=O)c4cc[nH]c4n3)c(OC)c2)C1 (centres undefined)	%	3.37
CN(C)CCCn1c(-c2nonc2N)nc2cnccc21	%	4.73
Cc1ccc(O)cc1Nc1ccnc2ccc(S(C)(=O)=O)cc12	%	5.88
COC(=O)Nc1nc2cc(Oc3ccc(NC(=O)Nc4cccc(Br)c4)cc3)ccc2[nH]1	%	0.8
COc1cc2ncnc(Nc3ccc(C)c(O)c3)c2cc1OC	%	26.3
COc1cc2ncn(-c3cc(OCc4ccccc4S(C)(=O)=O)c(C#N)s3)c2cc1OC	%	-1.42
Cc1ccc2c(-c3ccnc(Nc4ccc5c(c4)OCCO5)n3)c(-c3ccc(C(F)(F)F)cc3)nn2n1	%	4.1
O=S(=O)(CCOCc1ccc(-c2ccc3ncnc(Nc4ccc(OCc5cccc(F)c5)c(Cl)c4)c3c2)o1)c1ccccc1	%	69.8
Cc1ccc(C(=O)NC2CC2)cc1-c1ccc2[nH]ncc2c1	%	-4.83
CCn1c(-c2nonc2N)nc2c(C#CC(C)(C)O)nc(OCCNC)cc21	%	3.83
c1ccc(Cc2nc3ccc(Nc4ncnc5ccccc45)cc3[nH]2)cc1	%	51.6
O=C(Nc1ccc(Oc2ccc3[nH]c(NC(=O)c4ccco4)nc3c2)cc1)Nc1cc(C(F)(F)F)ccc1F	%	-0.1
N#Cc1cccc(Nc2nccc(-c3cnn4ncccc34)n2)c1	%	5.3
CN(C)c1cc2c(Nc3ccc4c(cnn4Cc4ccccc4)c3)ncnc2cn1	%	86.6
CS(=O)(=O)Nc1cccc(-c2ccc3c(NC(=O)C4CC4)n[nH]c3c2)c1	%	-4.31
[O-][S+]1CCN(Cc2ccc(-c3ccc4ncnc(Nc5ccc(OCc6ccccc6)c(Cl)c5)c4c3)o2)CC1	%	72.6
CCOc1nccc2c1nc(-c1nonc1N)n2CC	%	9.5
CCn1c(-c2nonc2N)nc2ccc(F)cc21	%	14
CCS(=O)(=O)c1ccc(OC)c(Nc2nccc(N(C)c3ccc4c(C)n[nH]c4c3)n2)c1	%	13.4
Cc1ccc2c(c1)/C(=N/Nc1ccc(S(N)(=O)=O)cc1)C(=O)N2	%	-4.77
Nc1nccc(C#Cc2cncnc2Nc2ccc(OCc3cccc(F)c3)c(Cl)c2)n1	%	-8.09
O=C1Nc2ccc(-c3cccnc3)cc2C1=Cc1cc(Br)c(O)c(Br)c1	%	4.88
Cc1nc(-c2ccccc2)n2nc(NCCCN3CCOCC3)ncc12	%	5.51
Cc1ccc2c(-c3ccnc(Nc4cccc(C(F)(F)F)c4)n3)c(-c3ccccc3)nn2n1	%	37.7
COc1cccc(-n2ncc3c(N/N=C/c4ccc(C)cc4)ncnc32)c1	%	3.43
